Taken from ChEMBL document CHEMBL3507680.

Test: Human HepG2 cell viability assay in 384 well format
Type: toxicity, cell-based
Set-up: dose 125 nL, time 70.5 hour; concentration not given beside the values
Details: HepG2 cells, read-out: Inhibition
reported property: cytotoxicity at 70.5 h

- CNC(=O)c1csc(-c2cccnc2)n1: 2.96%
- Cn1cnnc1Sc1ccc(NC(=O)C2CC2)cc1Cl: -9.39%
- CCOc1ccccc1C(=O)NC(CC(=O)O)c1cccs1 (configuration not stated): -6.28%
- CCC(=O)NCC(=O)NCC1(O)CCC(C(C)(C)C)CC1 (configuration not stated): -7.33%
- CCS(=O)(=O)N1CCC2(CC1)CC[C@@]1(C(=O)NC)CN(C(C)=O)C[C@@H]21: 11%
- Cc1ccc(-c2nc(CNC(C)CCO)[nH]c2-c2ccccn2)cc1 (configuration not stated): 1.74%
- Cc1cc(CN2CCN(C(=O)NCc3ccc(C)s3)CC2)no1: -27.6%
- CC(C)c1nnc(CN2CCc3ccc(S(N)(=O)=O)cc32)o1: -0.0777%
- CN(C)S(=O)(=O)c1ccc(CN2CCCC2c2ccsc2)o1 (configuration not stated): -7.08%
- COCC(=O)N1CCC2(CCC2NC(=O)c2ccn(C)c2)CC1 (configuration not stated): -9.35%
- Cc1nc(C)n(CC2CCCN2Cc2cccc3c2OCCO3)n1 (configuration not stated): -5.55%
- Cc1nnc(N2CCCC3(CN(Cc4cccnc4)CCO3)C2)o1 (configuration not stated): -4.29%
- Cc1nc(-c2nnc[nH]2)sc1C(=O)N1CCCC(C(F)(F)F)C1 (configuration not stated): -4.51%
- O=C(Nc1nccs1)NC1CCOc2ccccc21 (configuration not stated): -1.72%
- CN(C)C(=O)[C@H]1C[C@H]2OCC[C@H]2N(CCOc2ccc(Cl)cc2)C1: -3.17%
- Cc1cnc(N2CC[C@H]3[C@H](C[C@@H](CN(C)C)N3C)C2)nc1: -6.09%
- COc1ccc(C2CCCN2C(=O)c2ccnc(NC3CC3)c2)cc1 (configuration not stated): 6.42%
